Field: AD2 (SAGE tag count). Provide a value for each of the sequences that follow.
System: colorectal tissue transcripts
Assay: SAGE of normal, adenoma and cancer colorectal tissue (transcript tag counts)
Set-up: species or system human
Details: adenoma library 2

Return reported AD2 (SAGE tag count); argument: TAGACTAGCA (chemistry not fully specified) 6

Query (sequence): TCACCGGTCA (chemistry not fully specified) ; field requested: AD2 (SAGE tag count) 10

I would be grateful if you could share the reported AD2 (SAGE tag count) for TCAGCTGCAA (chemistry not fully specified) . 0

I'd like to know its AD2 (SAGE tag count). The sequence in question is TGATCTCTGT (chemistry not fully specified) 0

Need AD2 (SAGE tag count), item GTGTTGGGGG (chemistry not fully specified) 6

Which AD2 (SAGE tag count) value belongs to TTTAACGGCC (chemistry not fully specified) ? 35

Bench note: what AD2 (SAGE tag count) did TTCTGGTGCG (chemistry not fully specified) show? 0

Bench note: what AD2 (SAGE tag count) did TCAGAGCGCT (chemistry not fully specified) show? 7

I would be grateful if you could share the reported AD2 (SAGE tag count) for TGGCTACTTA (chemistry not fully specified) . 0

Find the recorded AD2 (SAGE tag count) belonging to TTGGGGTTTC (chemistry not fully specified) and report it. 81

Give the measured AD2 (SAGE tag count) of TACTCGGCCA (chemistry not fully specified) . 0

Query (sequence): TTCCGCGTTC (chemistry not fully specified) ; field requested: AD2 (SAGE tag count) 0

Quick one: AD2 (SAGE tag count) for TGCTCCTACC (chemistry not fully specified; the letters are possibly those of the target site) ? 22

Just for reference, patent US8029764B2 is where these values come from.
